Target: human ether-à-go-go-related gene (hERG) potassium channel (human, UniProt Q12809)
Sequence (Q12809 whole entry, looked up): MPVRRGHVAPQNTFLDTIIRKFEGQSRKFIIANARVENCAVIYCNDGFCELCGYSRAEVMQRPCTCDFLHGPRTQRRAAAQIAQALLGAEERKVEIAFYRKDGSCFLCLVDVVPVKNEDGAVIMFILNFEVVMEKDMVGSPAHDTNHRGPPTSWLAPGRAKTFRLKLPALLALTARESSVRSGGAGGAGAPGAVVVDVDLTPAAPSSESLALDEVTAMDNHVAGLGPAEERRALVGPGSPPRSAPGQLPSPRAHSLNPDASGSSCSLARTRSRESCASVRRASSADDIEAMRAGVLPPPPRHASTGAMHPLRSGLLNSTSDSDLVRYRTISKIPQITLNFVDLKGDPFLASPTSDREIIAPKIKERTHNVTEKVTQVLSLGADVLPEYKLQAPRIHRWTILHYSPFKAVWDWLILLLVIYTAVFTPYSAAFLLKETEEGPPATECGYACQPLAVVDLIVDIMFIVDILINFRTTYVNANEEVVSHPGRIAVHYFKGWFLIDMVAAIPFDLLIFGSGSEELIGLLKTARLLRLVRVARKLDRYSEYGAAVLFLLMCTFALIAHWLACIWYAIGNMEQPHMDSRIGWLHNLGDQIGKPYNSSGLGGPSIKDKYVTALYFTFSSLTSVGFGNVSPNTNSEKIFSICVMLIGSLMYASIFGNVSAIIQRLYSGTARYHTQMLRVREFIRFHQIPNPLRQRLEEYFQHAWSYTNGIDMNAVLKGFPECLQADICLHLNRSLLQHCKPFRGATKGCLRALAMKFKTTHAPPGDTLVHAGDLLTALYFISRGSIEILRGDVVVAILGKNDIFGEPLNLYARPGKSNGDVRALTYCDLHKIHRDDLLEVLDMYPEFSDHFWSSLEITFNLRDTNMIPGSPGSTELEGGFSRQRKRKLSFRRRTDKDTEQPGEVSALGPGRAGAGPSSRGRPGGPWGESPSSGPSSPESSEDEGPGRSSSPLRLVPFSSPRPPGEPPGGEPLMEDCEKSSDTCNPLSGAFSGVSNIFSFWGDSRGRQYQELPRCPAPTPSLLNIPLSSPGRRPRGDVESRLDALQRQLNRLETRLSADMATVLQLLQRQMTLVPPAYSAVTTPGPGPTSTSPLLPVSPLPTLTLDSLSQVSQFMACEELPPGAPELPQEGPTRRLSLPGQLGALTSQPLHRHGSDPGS
Assay: primary screen, population patch clamp on CHO cells stably expressing hERG; higher = less effect of the substance
About 14,000 (4.5%) of roughly 310,000 compounds showed an effect of 50% or more. The effect is printed as a negative number. The list comes from a sample in which strong results are over-represented; it also holds close analogues and randomly drawn compounds.
measurement_type: hERG current change (%, negative = inhibition) at 10uM (%)
# unit: % | format: bare number

In [3]: df
Out[3]:
                                   compound                       experimental_target  units_of_measure  reported_measurement
0  CN(C)S(=O)(=O)c1ccc(N2CCCC2)c(C(=O)NCc2cccc(C(F)(F)F)c2)c1  human ether-à-go-go-related gene (hERG) potassium channel (human, UniProt Q12809)                 %                  4.61
1  Cc1ccc(NC(=O)c2ccc(OCC3CCCO3)cc2)c(C)c1 (stereo not drawn)  human ether-à-go-go-related gene (hERG) potassium channel (human, UniProt Q12809)                 %                 -9.65
2  CCc1ccccc1NC(=O)c1cc(S(=O)(=O)N(C)C)ccc1N1CCCC1  human ether-à-go-go-related gene (hERG) potassium channel (human, UniProt Q12809)                 %                 -32.2
3  CN(CC(=O)Nc1ccccc1Br)C(=O)c1cc(S(=O)(=O)N(C)C)ccc1N1CCCC1  human ether-à-go-go-related gene (hERG) potassium channel (human, UniProt Q12809)                 %                 -8.64
4  C/C(=C\C(=O)OCC(=O)NCc1ccccc1)C(=O)OCC(=O)NCc1ccccc1  human ether-à-go-go-related gene (hERG) potassium channel (human, UniProt Q12809)                 %                  18.8
5  Cc1ccccc1OCC(=O)NNC(=O)c1cc(S(=O)(=O)N(C)C)ccc1N1CCCC1  human ether-à-go-go-related gene (hERG) potassium channel (human, UniProt Q12809)                 %                0.0569
6       N#Cc1ccc(C(=O)Nc2nc3ccccc3[nH]2)cc1  human ether-à-go-go-related gene (hERG) potassium channel (human, UniProt Q12809)                 %                    19
7  COc1ccc(CN2C(=O)CN(C3CCCCCC3)C(=O)C2c2ccc(F)cc2)cc1 (stereo not drawn)  human ether-à-go-go-related gene (hERG) potassium channel (human, UniProt Q12809)                 %                  3.27

Please examine the following record next.
Asked: Data request, read-out hERG current change (%, negative = inhibition) at 10uM, for `CCOc1cc(C2C(C(=O)OC)=CN(C3CCCC3)C=C2C(=O)OC)cc(Br)c1O`
Given back: -1.51

====

Target: human ether-à-go-go-related gene (hERG) potassium channel (human, UniProt Q12809)
Assay: primary screen, population patch clamp on CHO cells stably expressing hERG; higher = less effect of the substance
Hit rate of the full screen: of about 310,000 compounds, about 14,000 (4.5%) showed an effect of 50% or more. Effects have a minus sign here. The sample as a whole holds a higher share of strong results than the screen did.
measurement_type: hERG current change (%, negative = inhibition) at 10uM
Write down the value, and be sure its unit follows.

Asked: Data request, read-out hERG current change (%, negative = inhibition) at 10uM, for OC(CNCc1ccc(Cl)cc1)(c1ccccc1)c1ccc(F)cc1 (stereo not drawn)
Given back: -4.52%

Asked: How about this compound: `c1ccc(-c2nc(CSc3nnc(-c4cccs4)o3)cs2)cc1`
Given back: -9.61%

====

hERG current change (%, negative = inhibition) at 10uM: recorded values
Molecular target: human ether-à-go-go-related gene (hERG) potassium channel (human, UniProt Q12809)
Experiment: primary screen, population patch clamp on CHO cells stably expressing hERG; higher = less effect of the substance
Among all 310,000 compounds or so, about 14,000 (4.5%) showed an effect of 50% or more. The effect is printed as a negative number. The full list was thinned out, with strong results kept by preference.
# unit: % | format: bare number

In [3]: df
Out[3]:
                     compound  reported_measurement
0  CCOC(=O)c1cnc2ccccc2c1NCCO                 -34.8

Asked: Data request, read-out hERG current change (%, negative = inhibition) at 10uM, for `COc1ccc(S(=O)(=O)N2CCN(c3ccccc3OC)CC2)cc1C(=O)N1CCCCC1`
Given back: 7.51

====

hERG current change (%, negative = inhibition) at 10uM: recorded values
Biological target: human ether-à-go-go-related gene (hERG) potassium channel (human);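 further: peak tail current of the secondary pulse compared with the same well before compound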
Test: primary screen, population patch clamp on CHO cells stably expressing hERG; higher = less effect of the substance
About 14,000 (4.5%) of roughly 310,000 compounds showed an effect of 50% or more. Effects have a minus sign here. Many of the other results were omitted from the sample, so strong results are more common in it than they were.
# unit: % | format: bare number

Solved cases below.
                                   molecule  units_of_measure  reported_measurement
0         Cc1ccc(-c2cc(=O)c3ccccc3[nH]2)cc1                 %                  13.6
1  COc1cccc(C2NC(CC(C)C)(C(=O)O)C3C(=O)N(Cc4ccccc4)C(=O)C23)c1O (stereo not shown)                 %                  10.2

Asked: Data request, read-out hERG current change (%, negative = inhibition) at 10uM, for `Cc1ccc(Nc2ncccc2C(N)=O)cc1`
Given back: 19.5

====

Molecular target: human ether-à-go-go-related gene (hERG) potassium channel (human, UniProt Q12809);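 further: peak tail current of the secondary pulse compared with the same well before compound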
Experiment: primary screen, population patch clamp on CHO cells stably expressing hERG; higher = less effect of the substance
Hit rate of the full screen: of about 310,000 compounds, about 14,000 (4.5%) showed an effect of 50% or more. Effects have a minus sign here. What follows is part of a selection rich in strong results, with near analogues and random picks from the rest.
hERG current change (%, negative = inhibition) at 10uM: recorded values
# unit: % | format: bare number

Solved cases below.
In [3]: df
Out[3]:
                                   molecule  units_of_measure  reported_measurement
0  COc1ccc(C(=O)C2CCCN(C3CSCCSC3)C2)cc1OC (stereo not shown)                 %                 -21.8
1      O=[N+]([O-])c1ccc(OCCCCCN2CCOCC2)cc1                 %                 -58.6
2  O=C(Oc1ccc(/C=N/NC(=O)c2ccccn2)cc1)c1cccc(Br)c1                 %                  11.4

Asked: Data request, read-out hERG current change (%, negative = inhibition) at 10uM, for `Clc1ccc(OCCCCCN2CCOCC2)cc1`
Given back: -37.6

Asked: How about this molecule: COc1ccc(C(=O)C2CCCN(C3Cc4ccccc4C3)C2)c(OC)c1 (stereo not shown)
Given back: -76.5

====

Biological target: human ether-à-go-go-related gene (hERG) potassium channel (human, UniProt Q12809);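 further: peak tail current of the secondary pulse compared with the same well before compound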
Experiment: primary screen, population patch clamp on CHO cells stably expressing hERG; higher = less effect of the substance
About 14,000 (4.5%) of roughly 310,000 compounds showed an effect of 50% or more. Effects have a minus sign here. The entries come from a sample that favours strong results as a whole.
measurement_type: hERG current change (%, negative = inhibition) at 10uM (%)
# unit: % | format: bare number

                                   compound                       experimental_target  reported_measurement
0  O=C(O)CC1c2ccccc2CCN1S(=O)(=O)c1ccc(F)cc1 (stereo not drawn)  human ether-à-go-go-related gene (hERG) potassium channel (human, UniProt Q12809)                  8.32

Asked: Data request, read-out hERG current change (%, negative = inhibition) at 10uM, for `CCOc1ccc2[nH]c(=O)c(CN(CCOC)C(=O)N3CCOCC3)cc2c1`
Given back: 13.5

Asked: How about this compound: COc1ccc(NC(=O)CNc2cc(S(=O)(=O)N3CCOCC3)ccc2NCC2CCCO2)cc1 (stereo not drawn)
Given back: -18.3

Asked: How about this compound: `CC(=O)Nc1ccc(S(=O)(=O)NC2=C(N3CCN(C)CC3)C(=O)c3ccccc3C2=O)cc1`
Given back: -0.763

====

hERG current change (%, negative = inhibition) at 10uM: recorded values
Target: human ether-à-go-go-related gene (hERG) potassium channel (human);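 further: peak tail current of the secondary pulse compared with the same well before compound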
Assay: primary screen, population patch clamp on CHO cells stably expressing hERG; higher = less effect of the substance
Hit rate of the full screen: of about 310,000 compounds, about 14,000 (4.5%) showed an effect of 50% or more. The effect is printed as a negative number. The sample holds strong results, similar compounds and a random draw of the others, so the mix is not that of the screen.
# unit: % | format: bare number

Solved cases below.
                                   compound  reported_measurement
0  CN1C(C(=O)NCc2ccco2)CC2Cn3c(nc4cc(Cl)c(Cl)cc43)C21 (stereo not shown)                 -43.2
1  NS(=O)(=O)c1ccc(CCNC(=O)C2Cc3ccccc3CN2C(=O)c2ccco2)cc1 (stereo not shown)                  9.39
2        CCn1c(SCC(=O)Nc2ccccc2Cl)nnc1C1CC1                  6.78
3  Cc1cc2nc3n(c2cc1C)CC1CC(C(=O)NCCC(C)C)N(C)C31 (stereo not shown)                  1.81
4  CN1C(C(=O)NCc2cccc(Br)c2)CC2Cn3c(nc4cc(Cl)c(Cl)cc43)C21 (stereo not shown)                 -75.8
5  O=C(NCCc1c[nH]c2ccccc12)C1Cc2ccccc2CN1C(=O)c1ccco1 (stereo not shown)                 -71.6
6  COCCNC(=O)C1CC2Cn3c(nc4cc(Cl)c(Cl)cc43)C2N1C (stereo not shown)                 -26.5
7  O=C(NCc1ccc2c(c1)OCO2)C1Cc2ccccc2CN1C(=O)c1ccco1 (stereo not shown)                   -59

Asked: Data request, read-out hERG current change (%, negative = inhibition) at 10uM, for `O=C(NCc1ccc2c(c1)OCO2)c1ccccc1`
Given back: -4.18

Asked: How about this compound: Cc1ccc(CNC(=O)C2CC3Cn4c(nc5cc(Cl)c(Cl)cc54)C3N2C)o1 (stereo not shown)
Given back: -58.5
